Tested on: Kochia (Kochia scoparia)
Experiment: Test A preemergence
Type: in vivo
Details: Bassia scoparia, pre-emergence, 240 h, Preemergence, 125 g ai/ha; 0 to 100 scale (0 no effect, 100 complete control); read-out: Plant response rating, Kochia
Items are presented alongside their recorded pest or weed control at 125 g/ha.
Write down the numeric answer in % and omit the unit.

Entry CN1CC[C@H](c2cccc(C(F)(F)F)c2)[C@@H](C(=O)Nc2ccc(F)c(F)c2F)C1=O , pest or weed control at 125 g/ha reported as 0

Entry O=C1NC[C@H](c2cc(Br)cc(Br)c2)[C@H]1C(=O)Nc1cccc(F)c1F , pest or weed control at 125 g/ha reported as 0

Entry O=C1NC[C@H](c2cncs2)[C@H]1C(=O)Nc1ccccc1F , pest or weed control at 125 g/ha reported as 0

Entry CN1C[C@H](c2ccc(C(F)(F)F)cc2)[C@@H](C(=O)Nc2ccccc2C#N)C1=O , pest or weed control at 125 g/ha reported as 90

----------
Items are presented alongside their recorded pest or weed control at 500 g/ha.
Test system: giant foxtail (Setaria faberii)
Assay: Test A preemergence
Format: in vivo
Details: Setaria faberi, pre-emergence, 240 h, 500 g ai/ha, preemergence; visual injury rating about 10 d after treatment, 0 to 100 scale (0 no effect, 100 complete control); read-out: Foxtail, Giant plant response rating
Write down the numeric answer in % and omit the unit.

{"MOLECULE": "Cc1ccc([C@H]2CN(C)C(=O)[C@]2(O)C(=O)Nc2cccc(F)c2F)cc1 (racemic) [Compound 1059]", "pest or weed control at 500 g/ha (%)": 80}

Entry CN1C[C@H](c2cc(F)cc(F)c2)[C@@H](C(=O)Nc2cnccc2Cl)C1=O [Compound 1096] , pest or weed control at 500 g/ha reported as 0

Entry Cc1cc([C@H]2CN(C)C(=O)[C@@H]2C(=O)Nc2cccc(F)c2F)cc(C)c1Br [Compound 1024] , pest or weed control at 500 g/ha reported as 90

Entry Cc1cc([C@H]2CN(C)C(=O)[C@@H]2C(=O)Nc2ccccc2S(C)(=O)=O)ccc1Cl [Compound 944] , pest or weed control at 500 g/ha reported as 90

Entry CN1C[C@H](c2cc(F)cc(C(F)(F)F)c2)[C@@H](C(=O)Nc2ccc(F)c(F)c2F)C1=O [Compound 993] , pest or weed control at 500 g/ha reported as 90

Entry O=C(Nc1cccc(Cl)c1F)[C@H]1C(=O)N(C2CC2)CC[C@@H]1c1cccc(C(F)(F)F)c1 [Compound 926] , pest or weed control at 500 g/ha reported as 90

Entry CN1CC[C@H](c2ccc(OC(F)(F)F)cc2)[C@@H](C(=O)Nc2ccccc2C(F)(F)F)C1=O [Compound 998] , pest or weed control at 500 g/ha reported as 0

Entry CN1CC[C@H](c2ccccc2)[C@@H](C(=O)Nc2ccccc2F)C1=O [Compound 1032] , pest or weed control at 500 g/ha reported as 70

----------
Items are presented alongside their recorded Kochia plant response rating (0 to 100 scale).
Tested on: Kochia (Kochia scoparia)
Experiment: Test A preemergence
Type: in vivo
Conditions: Preemergence, 500 g ai/ha; 0 is no effect, 100 is complete control
No unit in the answer, only the number.

Consider the reported Kochia plant response rating (0 to 100 scale) for these molecules:
{"MOLECULE": "O=C1NCC(c2cccc(OCC(F)F)c2)C1C(=O)Nc1cccc(F)c1F (centres unmarked)", "DATA_VALUE": 0}
{"MOLECULE": "Cc1cccc(C2CNC(=O)C2C(=O)Nc2ccccc2F)c1 (racemic)", "DATA_VALUE": 0}

Entry CN1CC(c2ccc(C(F)(F)F)c(F)c2)C(C(=O)Nc2cccc(F)c2F)C1=O (centres unmarked) , Kochia plant response rating (0 to 100 scale) reported as 80

Entry O=C1NCC(c2ccccc2-c2ccccc2)C1C(=O)Nc1cccc(F)c1F (racemic) , Kochia plant response rating (0 to 100 scale) reported as 0

Entry Cc1cccc(C2CNC(=O)C2C(=O)Nc2ccccc2C(F)(F)F)c1 (racemic) , Kochia plant response rating (0 to 100 scale) reported as 0

----------
System: barnyardgrass (Echinochloa crus-galli)
Experiment: Test A postemergence
Format: in vivo
Conditions: 125 g ai/ha, postemergence; visual injury rating on 0 to 100 scale (0 no effect, 100 complete control), approx. 10 d
QUANTITY_KIND: Barnyardgrass plant response rating
No unit in the answer, only the number.

Entry C=C(Cl)CN1CC(c2cccc(C(F)(F)F)c2)C(C(=O)Nc2cccc(F)c2F)C1=O (centres unmarked) [Compound 480] , Barnyardgrass plant response rating reported as 0

----------
Test system: barnyardgrass (Echinochloa crus-galli)
Test: Test B flooded paddy test
Assay type: in vivo
Details: Echinochloa crus-galli, 250 g ai/ha, Flood; 0 to 100 scale where 0 is no effect and 100 is complete control; read-out: Barnyardgrass plant response rating
QUANTITY_KIND: pest or weed control at 250 g/ha
Record the result as number plus unit.

{"COMPOUND": "O=C(Nc1ccc(F)c(F)c1F)[C@H]1C(=O)N(O)CC[C@@H]1c1ccc(C(F)(F)F)cc1 [Compound 1108]", "pest or weed control at 250 g/ha": "40%"}
{"COMPOUND": "CN1C[C@H](c2csc3c2CCC3)[C@@H](C(=O)Nc2ccc(F)c(F)c2F)C1=O [Compound 1081]", "pest or weed control at 250 g/ha": "90%"}
{"COMPOUND": "CN1CC(c2cccc(Br)c2)C(C(=O)Nc2ccccc2F)C1=O (centres unmarked) [Compound 1132]", "pest or weed control at 250 g/ha": "60%"}
{"COMPOUND": "CC(C)=CC1CNC(=O)C1C(=O)Nc1cccc(F)c1F (centres unmarked) [Compound 1012]", "pest or weed control at 250 g/ha": "0%"}

Kindly review the next compound as well.
Entry CN1C[C@H](c2csc3c2CCCC3)[C@@H](C(=O)Nc2ccc(F)c(F)c2F)C1=O [Compound 1079] , pest or weed control at 250 g/ha reported as 60%

----------
Test system: blackgrass (Alopecurus myosuroides)
Test: Test A postemergence
Assay type: in vivo
Details: 125 g ai/ha, postemergence; visual rating after approx. 10 d, 0 to 100 scale (0 no effect, 100 complete control)
QUANTITY_KIND: Plant response rating, Blackgrass
No unit in the answer, only the number.

Entry O=C1NCC(c2ccsc2Cl)C1C(=O)Nc1ccccc1F (stereo not drawn) [Compound 599] , Plant response rating, Blackgrass reported as 0

Entry O=C1NCC(c2cccc(Br)c2)C1C(=O)Nc1ccc(F)c(F)c1F (racemic) [Compound 689] , Plant response rating, Blackgrass reported as 50

Entry O=C1NCC(c2cccc(C(F)(F)F)c2)C1C(=O)Nc1ccc(Cl)cc1F (racemic) [Compound 675] , Plant response rating, Blackgrass reported as 0

----------
System: corn (Zea mays)
Assay: Test A postemergence
Type: in vivo
Settings: Zea mays, post-emergence, 240 h, 125 g ai/ha, postemergence, visual injury rating after approximately 10 d; read-out: Corn plant response rating (0 to 100 scale, 0 no effect, 100 complete control)
QUANTITY_KIND: plant injury at 125 g/ha (%)
Write down the numeric answer in % and omit the unit.

Reported corn (Zea mays) plant injury at 125 g/ha for item CCOc1ccc([C@H]2CN(C)C(=O)[C@@H]2C(=O)Nc2cccc(F)c2F)cc1 was 0

Reported corn (Zea mays) plant injury at 125 g/ha for item CN1C[C@H](c2cccc(OC(F)(F)C(F)F)c2)[C@@H](C(=O)Nc2ccccc2S(C)(=O)=O)C1=O was 60

Reported corn (Zea mays) plant injury at 125 g/ha for item CN1C[C@H](c2cc(F)cc(F)c2)[C@@H](C(=O)Nc2ccc(C(F)(F)F)nc2)C1=O was 0

Reported corn (Zea mays) plant injury at 125 g/ha for item COc1cccc(C2CN(C)C(=O)C2C(=O)Nc2cccc(F)c2F)c1 (stereo not drawn) was 40

Reported corn (Zea mays) plant injury at 125 g/ha for item COc1c(F)ccc([C@H]2CN(C)C(=O)[C@@H]2C(=O)Nc2ccccc2S(C)(=O)=O)c1Cl was 30

Reported corn (Zea mays) plant injury at 125 g/ha for item Cc1c(F)ccc([C@H]2CN(C)C(=O)[C@@H]2C(=O)Nc2cccc(F)c2F)c1F was 40

----------
Tested on: velvetleaf (Abutilon theophrasti)
Assay: Test G Pre-Emergence Protocol
Type: in vivo
Settings: Abutilon theophrasti, pre-emergence, 312 h, 62.5 g ai/ha, evaluated after 13 days, 100=total damage to plant, 0=no damage to plant, read-out: Velvetleaf damage rating
Items are presented alongside their recorded pest or weed control at 62.5 g/ha.

Consider the reported pest or weed control at 62.5 g/ha for these compounds:
{"COMPOUND": "CN1C[C@H](c2cc(C(F)(F)F)cc(C(F)(F)F)c2)[C@@H](C(=O)Nc2ccccc2S(C)(=O)=O)C1=O (racemic)", "DATA_VALUE": "0%"}
{"COMPOUND": "CCOc1cc(F)cc(C2CN(C)C(=O)C2C(=O)Nc2cccc(F)c2F)c1 (centres unmarked)", "DATA_VALUE": "0%"}
{"COMPOUND": "CN1C[C@H](c2cccc(C(F)(F)F)c2)[C@@H](C(=O)Nc2cnccc2C#N)C1=O (racemic)", "DATA_VALUE": "0%"}
{"COMPOUND": "CN1CC(c2ccc(C(F)(F)F)c(C(F)(F)F)c2)C(C(=O)Nc2cccc(F)c2F)C1=O (centres unmarked)", "DATA_VALUE": "0%"}
{"COMPOUND": "Cc1c(F)cccc1NC(=O)[C@@H]1C(=O)N(C)C[C@H]1c1cccc(C(C)(C)F)c1 (racemic)", "DATA_VALUE": "0%"}

Entry CN1C[C@H](c2cccc(C(F)(F)F)c2)[C@@H](C(=O)Nc2ccc3cccnc3n2)C1=O (racemic) , pest or weed control at 62.5 g/ha reported as 0%

Entry CCOc1cc(C2CN(C)C(=O)C2C(=O)Nc2cccc(F)c2F)ccc1Cl (centres unmarked) , pest or weed control at 62.5 g/ha reported as 0%

Entry CN1C[C@H](c2ccc(C(F)(F)F)cc2)[C@@H](C(=O)Nc2ccc(C(F)(F)F)cn2)C1=O (racemic) , pest or weed control at 62.5 g/ha reported as 0%

Values compiled from patent US12077503B2.
